# Tested on: P. aeruginosa PA01 (H103)
# Type: cell-based, Pseudomonas aeruginosa
# Applied Conditions: H103, 18 h
Non-standard residues stand in square brackets, D forms with d. Residues, ends and D or L forms follow the SMILES beside them. Gly(Nα-4-Cl-benzyl) = O=C(O)CNCc1ccc(Cl)cc1; NBzl(4-I)Gly = O=C(O)CNCc1ccc(I)cc1; Nphe = O=C(O)CNCc1ccccc1; Nlys = NCCCCNCC(=O)O
Readout Label: Minimal inhibitory concentration PA^g

Would you please look over these solved cases?
INSERT INTO assay_data (molecule, system_under_test, recorded_measurement) VALUES
  ('NCCCCNCC(=O)N(CC(=O)N(CCCCN)CC(=O)N(CC(=O)N(CCCCN)CC(=O)N(CC(=O)N(CCCCN)CC(=O)N(CC(N)=O)Cc1ccc(I)cc1)Cc1ccccc1)Cc1ccc(I)cc1)Cc1ccccc1 [Compound 18] (H-[Nlys][Nphe][Nlys][NBzl(4-I)Gly][Nlys][Nphe][Nlys][NBzl(4-I)Gly]-NH2)', 'P. aeruginosa PA01 (H103)', '> 512 µg/mL'),
  ('NCCCCNCC(=O)N(CC(=O)N(CCCCN)CC(=O)N(CC(=O)N(CCCCN)CC(=O)N(CC(=O)N(CCCCN)CC(=O)N(CC(=O)N(CCCCN)CC(=O)N(CC(N)=O)Cc1ccc(Cl)cc1)Cc1ccc(Cl)cc1)Cc1ccc(Cl)cc1)Cc1ccc(Cl)cc1)Cc1ccc(Cl)cc1 [Compound 21] (H-[Nlys][Gly(Nα-4-Cl-benzyl)][Nlys][Gly(Nα-4-Cl-benzyl)][Nlys][Gly(Nα-4-Cl-benzyl)][Nlys][Gly(Nα-4-Cl-benzyl)][Nlys][Gly(Nα-4-Cl-benzyl)]-NH2)', 'P. aeruginosa PA01 (H103)', '> 512 µg/mL');

Now look at this one.
# input // fetch Minimal inhibitory concentration PA^g given entry NCCCCNCC(=O)N(CC(=O)N(CCCCN)CC(=O)N(CC(=O)N(CCCCN)CC(=O)N(CC(=O)N(CCCCN)CC(=O)N(CC(=O)N(CCCCN)CC(=O)N(CC(N)=O)Cc1ccc(Cl)cc1)Cc1ccccc1)Cc1ccc(Cl)cc1)Cc1ccccc1)Cc1ccc(Cl)cc1 [Compound 25] (H-[Nlys][Gly(Nα-4-Cl-benzyl)][Nlys][Nphe][Nlys][Gly(Nα-4-Cl-benzyl)][Nlys][Nphe][Nlys][Gly(Nα-4-Cl-benzyl)]-NH2)
# output 512 µg/mL

====

Provide the recorded Minimal inhibitory concentration MRSA^c for the entries that follow.
# Test system: Methicillin-resistant S. aureus USA 300
# Assay type: cell-based, Staphylococcus aureus
# Applied Conditions: USA 300, 18 h
Non-standard residues stand in square brackets, D forms with d. Residues, ends and D or L forms follow the SMILES beside them. Gly(Nα-4-Cl-benzyl) = O=C(O)CNCc1ccc(Cl)cc1; Nphe = O=C(O)CNCc1ccccc1; Nlys = NCCCCNCC(=O)O
One number for each entry, in µg/mL.

// below: answered compounds
INSERT INTO measurements (compound, system_under_test, readout_label, unit_string, recorded_measurement) VALUES
  ('NCCCCNCC(=O)N(CC(=O)N(CCCCN)CC(=O)N(CC(=O)N(CCCCN)CC(=O)N(CC(=O)N(CCCCN)CC(=O)N(CC(=O)N(CCCCN)CC(=O)N(CC(=O)N(CCCCN)CC(=O)N(CC(N)=O)Cc1ccccc1)Cc1ccccc1)Cc1ccccc1)Cc1ccccc1)Cc1ccccc1)Cc1ccccc1 [Compound 28] (H-[Nlys][Nphe][Nlys][Nphe][Nlys][Nphe][Nlys][Nphe][Nlys][Nphe][Nlys][Nphe]-NH2)', 'Methicillin-resistant S. aureus USA 300', 'Minimal inhibitory concentration MRSA^c', 'µg/mL', 512),
  ('NCCCCNCC(=O)N(CC(=O)N(CCCCN)CC(=O)N(CC(=O)N(CCCCN)CC(=O)N(CC(=O)N(CCCCN)CC(=O)N(CC(=O)N(CCCCN)CC(=O)N(CC(=O)N(CCCCN)CC(=O)N(CC(N)=O)Cc1ccc(Cl)cc1)Cc1ccc(Cl)cc1)Cc1ccc(Cl)cc1)Cc1ccc(Cl)cc1)Cc1ccc(Cl)cc1)Cc1ccc(Cl)cc1 [Compound 30] (H-[Nlys][Gly(Nα-4-Cl-benzyl)][Nlys][Gly(Nα-4-Cl-benzyl)][Nlys][Gly(Nα-4-Cl-benzyl)][Nlys][Gly(Nα-4-Cl-benzyl)][Nlys][Gly(Nα-4-Cl-benzyl)][Nlys][Gly(Nα-4-Cl-benzyl)]-NH2)', 'Methicillin-resistant S. aureus USA 300', 'Minimal inhibitory concentration MRSA^c', 'µg/mL', 2);

Kindly review the next compound as well.
# input Please indicate Minimal inhibitory concentration MRSA^c recorded for NCCCCNCC(=O)N(CC(=O)N(CCCCN)CC(=O)N(CC(=O)N(CCCCN)CC(=O)N(CC(=O)N(CCCCN)CC(=O)N(CC(=O)N(CCCCN)CC(=O)N(CC(N)=O)Cc1ccc(Cl)cc1)Cc1ccc(Cl)cc1)Cc1ccc(Cl)cc1)Cc1ccc(Cl)cc1)Cc1ccc(Cl)cc1 [Compound 21] (H-[Nlys][Gly(Nα-4-Cl-benzyl)][Nlys][Gly(Nα-4-Cl-benzyl)][Nlys][Gly(Nα-4-Cl-benzyl)][Nlys][Gly(Nα-4-Cl-benzyl)][Nlys][Gly(Nα-4-Cl-benzyl)]-NH2)
# output 2

====

# Test system: Methicillin-resistant S. epidermidis ET-024
# Assay type: cell-based, Staphylococcus epidermidis
# Applied Conditions: Methicillin-resistant ET-024, 18 h
Non-standard residues stand in square brackets, D forms with d. Residues, ends and D or L forms follow the SMILES beside them. Gly(Nα-4-Cl-benzyl) = O=C(O)CNCc1ccc(Cl)cc1; Nphe = O=C(O)CNCc1ccccc1; Nlys = NCCCCNCC(=O)O
Would you mind telling me the reported Minimal inhibitory concentration MRSE^d of each entry?
One number for each entry, in µg/mL.

INSERT INTO assay_data (compound, recorded_measurement) VALUES
  ('NCCCCNCC(=O)N(CC(=O)N(CCCCN)CC(=O)N(CC(=O)N(CCCCN)CC(=O)N(CC(N)=O)Cc1ccccc1)Cc1ccccc1)Cc1ccccc1 [Compound 1] (H-[Nlys][Nphe][Nlys][Nphe][Nlys][Nphe]-NH2)', 512);

Turning now to a further record.
# input Look up Methicillin-resistant S. epidermidis ET-024 data: Minimal inhibitory concentration MRSE^d of NCCCCNCC(=O)N(CC(=O)N(CCCCN)CC(=O)N(CC(=O)N(CCCCN)CC(=O)N(CC(N)=O)Cc1ccc(Cl)cc1)Cc1ccccc1)Cc1ccc(Cl)cc1 [Compound 7] (H-[Nlys][Gly(Nα-4-Cl-benzyl)][Nlys][Nphe][Nlys][Gly(Nα-4-Cl-benzyl)]-NH2) , then report it.
# output 64

====

# Test system: Methicillin-resistant S. epidermidis ET-024
# Assay type: cell-based, Staphylococcus epidermidis
# Applied Conditions: Methicillin-resistant ET-024, 18 h
Non-standard residues stand in square brackets, D forms with d. Residues, ends and D or L forms follow the SMILES beside them. Gly(Nα-4-Cl-benzyl) = O=C(O)CNCc1ccc(Cl)cc1; N(4-F-Bzl)Gly = O=C(O)CNCc1ccc(F)cc1; Nphe = O=C(O)CNCc1ccccc1; Nlys = NCCCCNCC(=O)O
Readout Label: Minimal inhibitory concentration MRSE^d (µg/mL)
One number for each entry, in µg/mL.

Field: example entries. Status: answers known.
INSERT INTO assay_data (molecule, system_under_test, readout_label, recorded_measurement) VALUES
  ('NCCCCNCC(=O)N(CC(=O)N(CCCCN)CC(=O)N(CC(=O)N(CCCCN)CC(=O)N(CC(=O)N(CCCCN)CC(=O)N(CC(=O)N(CCCCN)CC(=O)N(CC(N)=O)Cc1ccc(F)cc1)Cc1ccccc1)Cc1ccc(F)cc1)Cc1ccccc1)Cc1ccc(F)cc1 [Compound 24] (H-[Nlys][N(4-F-Bzl)Gly][Nlys][Nphe][Nlys][N(4-F-Bzl)Gly][Nlys][Nphe][Nlys][N(4-F-Bzl)Gly]-NH2)', 'Methicillin-resistant S. epidermidis ET-024', 'Minimal inhibitory concentration MRSE^d', 4),
  ('NCCCCNCC(=O)N(CC(=O)N(CCCCN)CC(=O)N(CC(=O)N(CCCCN)CC(=O)N(CC(=O)N(CCCCN)CC(=O)N(CC(N)=O)Cc1ccc(F)cc1)Cc1ccc(F)cc1)Cc1ccc(F)cc1)Cc1ccc(F)cc1 [Compound 11] (H-[Nlys][N(4-F-Bzl)Gly][Nlys][N(4-F-Bzl)Gly][Nlys][N(4-F-Bzl)Gly][Nlys][N(4-F-Bzl)Gly]-NH2)', 'Methicillin-resistant S. epidermidis ET-024', 'Minimal inhibitory concentration MRSE^d', 64),
  ('NCCCCNCC(=O)N(CC(=O)N(CCCCN)CC(=O)N(CC(=O)N(CCCCN)CC(=O)N(CC(=O)N(CCCCN)CC(=O)N(CC(=O)N(CCCCN)CC(=O)N(CC(=O)N(CCCCN)CC(=O)N(CC(N)=O)Cc1ccc(Cl)cc1)Cc1ccccc1)Cc1ccc(Cl)cc1)Cc1ccccc1)Cc1ccc(Cl)cc1)Cc1ccccc1 [Compound 34] (H-[Nlys][Nphe][Nlys][Gly(Nα-4-Cl-benzyl)][Nlys][Nphe][Nlys][Gly(Nα-4-Cl-benzyl)][Nlys][Nphe][Nlys][Gly(Nα-4-Cl-benzyl)]-NH2)', 'Methicillin-resistant S. epidermidis ET-024', 'Minimal inhibitory concentration MRSE^d', 4),
  ('NCCCCNCC(=O)N(CC(=O)N(CCCCN)CC(=O)N(CC(=O)N(CCCCN)CC(=O)N(CC(N)=O)Cc1ccc(Cl)cc1)Cc1ccc(Cl)cc1)Cc1ccc(Cl)cc1 [Compound 3] (H-[Nlys][Gly(Nα-4-Cl-benzyl)][Nlys][Gly(Nα-4-Cl-benzyl)][Nlys][Gly(Nα-4-Cl-benzyl)]-NH2)', 'Methicillin-resistant S. epidermidis ET-024', 'Minimal inhibitory concentration MRSE^d', 16);

# input Find the measured Minimal inhibitory concentration MRSE^d of NCCCCNCC(=O)N(CC(=O)N(CCCCN)CC(=O)N(CC(=O)N(CCCCN)CC(=O)N(CC(=O)N(CCCCN)CC(=O)N(CC(N)=O)Cc1ccccc1)Cc1ccccc1)Cc1ccccc1)Cc1ccccc1 [Compound 10] (H-[Nlys][Nphe][Nlys][Nphe][Nlys][Nphe][Nlys][Nphe]-NH2) and report it.
# output 256
